Recorded values, source PubChem BioAssay (EPA / NIEHS).

Test: APR_HepG2_StressKinase_24hr: Apredica 24-hour HepG2 Assay for Stress Kinase (AID 2282922)
Settings: HepG2 stress kinase (phospho-c-Jun) imaging, actives raise or lower the signal
Activity calls are given as the source filed them. Rule for the calls: active = hit-call score of the fitted dose curve at least 0.9, where 1 is the maximum; inactive = score below 0.9.
measure-name: outcome

[[record]]
structure_smiles_string = "CCOC(N)=O"
value_observed = "inactive"

[[record]]
structure_smiles_string = "O=C1CN(N=Cc2ccc([N+](=O)[O-])o2)C(=O)N1"
value_observed = "inactive"

[[record]]
structure_smiles_string = "C[C@]12C=CC(=O)C=C1CC[C@H]1[C@@H]3C[C@@H](O)[C@](O)(C(=O)CO)[C@@]3(C)C[C@H](O)[C@@]12F"
value_observed = "inactive"

[[record]]
structure_smiles_string = "CCCCCCCCCCCCCCO"
value_observed = "inactive"

[[record]]
structure_smiles_string = "NC(=O)NN=Cc1ccc([N+](=O)[O-])o1"
value_observed = "inactive"

[[record]]
structure_smiles_string = "OCC(CO)(CO)CO"
value_observed = "inactive"

[[record]]
structure_smiles_string = "c1ccc2cc3ccccc3cc2c1"
value_observed = "inactive"


* * *

Read-out: Cellular tumor antigen p53 (Homo sapiens) (UniProt P04637)
Sequence (P04637 whole entry, looked up): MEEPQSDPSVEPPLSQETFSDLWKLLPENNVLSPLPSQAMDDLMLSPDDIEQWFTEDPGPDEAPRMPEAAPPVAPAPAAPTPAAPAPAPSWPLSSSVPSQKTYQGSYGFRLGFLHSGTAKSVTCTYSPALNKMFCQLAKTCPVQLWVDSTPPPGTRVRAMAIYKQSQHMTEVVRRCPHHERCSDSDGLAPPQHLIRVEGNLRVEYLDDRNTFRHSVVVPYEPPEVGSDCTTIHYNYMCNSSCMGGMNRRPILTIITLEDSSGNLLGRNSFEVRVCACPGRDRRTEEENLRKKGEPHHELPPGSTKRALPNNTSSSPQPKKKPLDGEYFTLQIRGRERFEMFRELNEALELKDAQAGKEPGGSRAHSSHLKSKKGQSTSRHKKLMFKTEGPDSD
Assay: LTEA_HepaRG_TP53: Life Technologies and Expression Analysis (LTEA) Assay for Tumor Protein P53 (TP53) using HepaRG (AID 2283537)
Conditions: mRNA level, 48 h; actives raise or lower the signal
Active and inactive are the calls of the source. How the source made its calls: active means hit-call score of the fitted dose curve at least 0.9, where 1 is the maximum; inactive means score below 0.9.
Labels: 1.0 = active, 0.0 = inactive

[[record]]
compound = "NNC(=O)c1ccncc1"
group_label = 0.0

[[record]]
compound = "CCn1nc(C)c2c1C(=O)NCC(c1ccc(O)cc1)=N2"
group_label = 0.0

[[record]]
compound = "CCCCCCCCCCCCCCO"
group_label = 0.0

[[record]]
compound = "O=S1(=O)CCCO1"
group_label = 0.0

[[record]]
compound = "CCN(CC)C(=S)SSC(=S)N(CC)CC"
group_label = 0.0

[[record]]
compound = "CCCCOC(=O)c1ccccc1"
group_label = 0.0

[[record]]
compound = "CCCCC(CC)C(=O)OCCOCCOCCOC(=O)C(CC)CCCC (stereo not given)"
group_label = 0.0

[[record]]
compound = "CCCCCCCCCCCCCCCCOS(=O)(=O)O"
group_label = 0.0

[[record]]
compound = "CCOC(N)=O"
group_label = 0.0

[[record]]
compound = "NC(=O)NN=Cc1ccc([N+](=O)[O-])o1"
group_label = 1.0

[[record]]
compound = "Cn1cc[nH]c1=S"
group_label = 0.0

[[record]]
compound = "CCCCCCCC/C=C\\CCCCCCCC(=O)OC[C@@H](O)[C@H]1OC[C@H](O)[C@H]1O"
group_label = 0.0

[[record]]
compound = "CC1(C)C(=O)N(Cl)C(=O)N1Cl"
group_label = 0.0

[[record]]
compound = "O=C(O)c1ccc2c(c1)nc(C(=O)NC1CCN(C3CC3)CC1)n2Cc1cc(-c2ccc(Cl)s2)on1"
group_label = 0.0

[[record]]
compound = "O=C1CN(N=Cc2ccc([N+](=O)[O-])o2)C(=O)N1"
group_label = 0.0

[[record]]
compound = "O=C(O)c1cccc(C[C@@H]2COc3ccc(OCc4nc5cc(F)ccc5s4)cc3[C@@H]2O)c1"
group_label = 0.0

[[record]]
compound = "C=CN1CCCC1=O"
group_label = 0.0

[[record]]
compound = "C[C@]12C=CC(=O)C=C1CC[C@H]1[C@@H]3C[C@@H](O)[C@](O)(C(=O)CO)[C@@]3(C)C[C@H](O)[C@@]12F"
group_label = 0.0

[[record]]
compound = "CCCCCCCC1CCC(=O)O1 (stereo not given)"
group_label = 0.0

[[record]]
compound = "c1ccc2ncccc2c1"
group_label = 0.0


* * *

Read-out: Fatty acid synthase (Homo sapiens) (UniProt P49327)
Sequence (P49327 whole entry, looked up): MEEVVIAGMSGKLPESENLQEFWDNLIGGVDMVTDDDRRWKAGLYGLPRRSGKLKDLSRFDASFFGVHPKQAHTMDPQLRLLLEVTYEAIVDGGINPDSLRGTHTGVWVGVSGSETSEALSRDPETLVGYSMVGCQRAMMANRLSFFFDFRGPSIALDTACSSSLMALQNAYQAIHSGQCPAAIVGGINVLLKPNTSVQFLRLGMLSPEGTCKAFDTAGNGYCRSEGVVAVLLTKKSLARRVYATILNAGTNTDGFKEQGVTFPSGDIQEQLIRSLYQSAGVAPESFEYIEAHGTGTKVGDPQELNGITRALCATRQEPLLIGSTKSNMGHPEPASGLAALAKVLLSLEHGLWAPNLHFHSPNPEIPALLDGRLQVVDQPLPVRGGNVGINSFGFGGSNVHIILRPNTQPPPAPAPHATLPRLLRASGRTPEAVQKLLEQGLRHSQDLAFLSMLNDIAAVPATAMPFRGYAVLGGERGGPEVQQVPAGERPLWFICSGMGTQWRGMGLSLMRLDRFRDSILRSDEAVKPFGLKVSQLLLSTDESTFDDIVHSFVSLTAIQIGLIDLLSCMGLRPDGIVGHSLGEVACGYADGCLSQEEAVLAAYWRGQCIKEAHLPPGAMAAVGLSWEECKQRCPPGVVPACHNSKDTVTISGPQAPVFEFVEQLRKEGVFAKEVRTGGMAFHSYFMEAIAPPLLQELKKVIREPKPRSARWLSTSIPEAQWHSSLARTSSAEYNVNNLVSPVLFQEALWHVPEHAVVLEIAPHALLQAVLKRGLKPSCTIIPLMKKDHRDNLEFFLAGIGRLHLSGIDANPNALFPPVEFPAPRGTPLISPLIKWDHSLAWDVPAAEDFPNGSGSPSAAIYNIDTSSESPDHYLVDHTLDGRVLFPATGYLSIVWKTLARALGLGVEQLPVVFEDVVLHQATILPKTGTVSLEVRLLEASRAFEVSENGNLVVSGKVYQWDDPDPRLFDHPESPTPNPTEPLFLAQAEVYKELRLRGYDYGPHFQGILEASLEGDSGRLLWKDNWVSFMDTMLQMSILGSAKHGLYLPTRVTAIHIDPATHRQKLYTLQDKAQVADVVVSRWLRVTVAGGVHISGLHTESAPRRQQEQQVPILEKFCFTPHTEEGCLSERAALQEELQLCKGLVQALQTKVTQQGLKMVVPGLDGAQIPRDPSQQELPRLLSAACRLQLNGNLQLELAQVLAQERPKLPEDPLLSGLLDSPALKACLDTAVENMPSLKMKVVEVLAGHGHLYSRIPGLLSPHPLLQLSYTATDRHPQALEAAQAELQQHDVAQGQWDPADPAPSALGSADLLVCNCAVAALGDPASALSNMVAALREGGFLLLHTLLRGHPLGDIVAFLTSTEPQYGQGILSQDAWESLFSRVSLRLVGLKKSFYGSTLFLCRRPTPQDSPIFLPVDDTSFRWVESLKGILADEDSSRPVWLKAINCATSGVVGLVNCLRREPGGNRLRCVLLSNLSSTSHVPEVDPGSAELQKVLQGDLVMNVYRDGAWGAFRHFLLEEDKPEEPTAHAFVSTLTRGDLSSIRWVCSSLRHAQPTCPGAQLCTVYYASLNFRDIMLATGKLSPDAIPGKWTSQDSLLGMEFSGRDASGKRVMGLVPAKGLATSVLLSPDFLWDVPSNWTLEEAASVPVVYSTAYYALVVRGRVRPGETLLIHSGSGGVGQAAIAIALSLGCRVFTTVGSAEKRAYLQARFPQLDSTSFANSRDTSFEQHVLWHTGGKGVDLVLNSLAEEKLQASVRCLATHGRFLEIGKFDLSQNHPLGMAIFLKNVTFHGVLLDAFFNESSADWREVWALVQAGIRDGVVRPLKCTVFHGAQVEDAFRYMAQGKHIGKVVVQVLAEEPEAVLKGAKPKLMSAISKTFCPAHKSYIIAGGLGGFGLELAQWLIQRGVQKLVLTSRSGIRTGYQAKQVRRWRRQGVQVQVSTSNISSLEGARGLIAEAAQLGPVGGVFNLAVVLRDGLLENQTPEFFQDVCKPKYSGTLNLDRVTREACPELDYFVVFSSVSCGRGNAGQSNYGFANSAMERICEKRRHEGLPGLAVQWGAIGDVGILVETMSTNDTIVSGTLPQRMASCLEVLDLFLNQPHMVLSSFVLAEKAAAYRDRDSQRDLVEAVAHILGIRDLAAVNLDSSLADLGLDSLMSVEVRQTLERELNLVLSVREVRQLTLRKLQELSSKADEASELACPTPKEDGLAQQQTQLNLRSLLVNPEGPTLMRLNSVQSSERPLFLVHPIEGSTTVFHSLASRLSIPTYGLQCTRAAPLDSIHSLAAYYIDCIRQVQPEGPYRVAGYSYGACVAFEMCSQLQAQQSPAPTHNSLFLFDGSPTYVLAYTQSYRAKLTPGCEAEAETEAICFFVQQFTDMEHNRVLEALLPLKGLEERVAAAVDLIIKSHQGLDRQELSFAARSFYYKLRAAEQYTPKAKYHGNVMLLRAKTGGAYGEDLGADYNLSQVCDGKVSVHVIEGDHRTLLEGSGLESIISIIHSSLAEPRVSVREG
Assay: LTEA_HepaRG_FASN: Life Technologies and Expression Analysis (LTEA) Assay for Fatty Acid Synthase (FASN) using HepaRG (AID 2283448)
Conditions: mRNA level, 48 h; actives raise or lower the signal
Activity calls are given as the source filed them. Rule for the calls: active = hit-call score of the fitted dose curve at least 0.9, where 1 is the maximum; inactive = score below 0.9.
Labels: true (1) for active, false (0) for inactive

[[record]]
molecule = "CCCCCCCCCC"
group_label = "false (0)"

[[record]]
molecule = "C[C@]12C=CC(=O)C=C1CC[C@H]1[C@@H]3C[C@@H](O)[C@](O)(C(=O)CO)[C@@]3(C)C[C@H](O)[C@@]12F"
group_label = "false (0)"

[[record]]
molecule = "CC(C)CCCCCCOC(=O)C1CCCCC1C(=O)OCCCCCCC(C)C (stereo not given)"
group_label = "false (0)"

[[record]]
molecule = "NC(=O)NN=Cc1ccc([N+](=O)[O-])o1"
group_label = "true (1)"

[[record]]
molecule = "c1ccc2cc3ccccc3cc2c1"
group_label = "false (0)"

[[record]]
molecule = "CCCc1ccccc1"
group_label = "false (0)"

[[record]]
molecule = "CCc1cccc(CC)c1N"
group_label = "false (0)"

[[record]]
molecule = "CCCOc1ccc(S(=O)(=O)N2CCN(CC)CC2)cc1-c1nc2c(CC)n(Cc3ccccn3)nc2c(=O)[nH]1"
group_label = "true (1)"

[[record]]
molecule = "CCCCCCCCCCCCCCCCOS(=O)(=O)O"
group_label = "false (0)"

[[record]]
molecule = "CNC(C)=O"
group_label = "false (0)"

[[record]]
molecule = "COc1cc2c(c(OC)c1OC)-c1ccc(OC)c(=O)cc1[C@@H](NC(C)=O)CC2"
group_label = "true (1)"

[[record]]
molecule = "CCCC(CCC)C(=O)O"
group_label = "false (0)"

[[record]]
molecule = "O=C(O)c1ccc2c(c1)nc(C(=O)NC1CCN(C3CC3)CC1)n2Cc1cc(-c2ccc(Cl)s2)on1"
group_label = "false (0)"

[[record]]
molecule = "Cn1cc[nH]c1=S"
group_label = "false (0)"

[[record]]
molecule = "CCCCCCOC(=O)CC(CC(=O)OCCCCCC)(OC(=O)CCC)C(=O)OCCCCCC"
group_label = "false (0)"

[[record]]
molecule = "CCn1nc(C)c2c1C(=O)NCC(c1ccc(O)cc1)=N2"
group_label = "true (1)"

[[record]]
molecule = "COS(C)(=O)=O"
group_label = "false (0)"

[[record]]
molecule = "NC(=O)N(O)[C@@H]1COc2cc(OCc3ccccc3)ccc21"
group_label = "false (0)"

[[record]]
molecule = "Cc1nc(-c2ccccn2)ncc1C(=O)Nn1cc(C)c2cc(F)ccc21"
group_label = "false (0)"

[[record]]
molecule = "CCCCOC(=O)c1ccccc1"
group_label = "false (0)"


* * *

Read-out: Tissue Factor, F3 (gene 2152)
Assay: BSK_CASM3C_TissueFactor: BioMAP Diversity Plus: CASM3C Assay for Tissue Factor Biomarker Activity (AID 2283052);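 note: cell surface tissue factor protein level read by ELISA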
Conditions: primary human coronary artery smooth muscle cells; actives raise or lower the signal
The source made the active and inactive calls. The calls were made as follows: active = hit-call score of the fitted dose curve at least 0.9, where 1 is the maximum; inactive = score below 0.9.
Labels: 1 (active), 0 (inactive)

[[record]]
compound = "NCC(F)(F)C(F)(F)C(F)(F)C(F)(F)F"
group_label = 0

[[record]]
compound = "CCn1nc(C)c2c1C(=O)NCC(c1ccc(O)cc1)=N2"
group_label = 0

[[record]]
compound = "COc1cc(C(C)C)c2c(c1)S(=O)(=O)N(COc1cc(=O)n3cccc(OCCN4CCCCC4)c3n1)C2=O"
group_label = 0

[[record]]
compound = "OC(Cn1cncn1)(Cn1cncn1)c1ccc(F)cc1F"
group_label = 0

[[record]]
compound = "CC1(C)C(=O)N(Cl)C(=O)N1Cl"
group_label = 0

[[record]]
compound = "CCCCCCCC/C=C\\CCCCCCCC(=O)OC[C@@H](O)[C@H]1OC[C@H](O)[C@H]1O"
group_label = 0

[[record]]
compound = "CCOC(N)=O"
group_label = 0

[[record]]
compound = "COCc1nnc(-c2ccc[n+]([O-])c2)n1-c1c(Cl)c(Cl)cc2[nH]c(=O)c(=O)[nH]c12"
group_label = 0

[[record]]
compound = "OC(CCl)CCl"
group_label = 0

[[record]]
compound = "C[C@@H](Oc1ccc(CNC(=O)c2cccnc2Oc2ccc3c(c2)OCO3)c(F)c1)C(=O)O"
group_label = 0

[[record]]
compound = "CNC(C)=O"
group_label = 0

[[record]]
compound = "CCCc1ccccc1"
group_label = 0

[[record]]
compound = "FC(F)C(F)(F)COCC1CO1 (centres undefined)"
group_label = 0

[[record]]
compound = "Cc1ncc([C@@H](CCCCCCc2ccc3c(n2)NCCC3)CC(=O)O)cn1"
group_label = 0

[[record]]
compound = "COS(C)(=O)=O"
group_label = 0

[[record]]
compound = "OCCOCCOCCO"
group_label = 0

[[record]]
compound = "O=C(O)c1cccc(C[C@@H]2COc3ccc(OCc4nc5cc(F)ccc5s4)cc3[C@@H]2O)c1"
group_label = 0

[[record]]
compound = "S=P(N1CC1)(N1CC1)N1CC1"
group_label = 0

[[record]]
compound = "CCCCCCCCCCCCCCCCOS(=O)(=O)O"
group_label = 0

[[record]]
compound = "NC(N)=O"
group_label = 0

[[record]]
compound = "O=C(O)[C@H](O)[C@@H](O)C(=O)O"
group_label = 0

[[record]]
compound = "FC(F)(F)COC(OCC(F)(F)F)OCC(F)(F)F"
group_label = 0

[[record]]
compound = "C[Si](C)(C)C(F)(F)C(F)(F)C(F)(F)F"
group_label = 0

[[record]]
compound = "O=S(=O)(O)c1ccc(N=Nc2c(O)ccc3cc(S(=O)(=O)O)ccc23)cc1"
group_label = 0

[[record]]
compound = "CC(C)CCCCCCOC(=O)C1CCCCC1C(=O)OCCCCCCC(C)C (centres undefined)"
group_label = 0

[[record]]
compound = "C=CCc1cc(S(=O)(=O)c2ccc(O)c(CC=C)c2)ccc1O"
group_label = 1

[[record]]
compound = "CCc1ccc(O)c(C(C)(C)C)c1"
group_label = 0

[[record]]
compound = "FC(F)(F)C(F)(F)C(F)(F)C(F)(F)C(F)(F)C(F)(F)I"
group_label = 0

[[record]]
compound = "C=CN1CCCC1=O"
group_label = 0

[[record]]
compound = "CCCCC(CC)C(=O)OCCOCCOCCOC(=O)C(CC)CCCC (centres undefined)"
group_label = 0

[[record]]
compound = "CCCCCOC(C)=O"
group_label = 0

[[record]]
compound = "OC[C@H]1O[C@@](CO)(O[C@H]2O[C@H](CO)[C@@H](O)[C@H](O)[C@H]2O)[C@@H](O)[C@@H]1O"
group_label = 0

[[record]]
compound = "OCc1ccccc1"
group_label = 0

[[record]]
compound = "OCCNCCO"
group_label = 0

